Target: Peroxisome proliferator-activated receptor alpha (Homo sapiens)
Sequence (Q07869 whole entry): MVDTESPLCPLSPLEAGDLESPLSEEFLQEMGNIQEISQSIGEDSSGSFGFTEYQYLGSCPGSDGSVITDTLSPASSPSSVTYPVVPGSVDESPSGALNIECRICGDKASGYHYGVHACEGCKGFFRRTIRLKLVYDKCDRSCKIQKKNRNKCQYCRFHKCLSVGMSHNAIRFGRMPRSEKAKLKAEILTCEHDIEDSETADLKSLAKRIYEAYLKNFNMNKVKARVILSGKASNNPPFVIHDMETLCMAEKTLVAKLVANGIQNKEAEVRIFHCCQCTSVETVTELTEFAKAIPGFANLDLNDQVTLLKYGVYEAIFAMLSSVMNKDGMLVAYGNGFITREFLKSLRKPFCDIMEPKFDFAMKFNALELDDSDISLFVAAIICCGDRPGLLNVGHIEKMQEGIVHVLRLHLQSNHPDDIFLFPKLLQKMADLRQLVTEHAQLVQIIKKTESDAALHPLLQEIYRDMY
Experiment: Agonist activity at human PPARalpha expressed in CV1 cells by transactivation assay

Compound	Unit spec	Relation operator	EC50
Cc1oc(-c2ccc(C(F)(F)F)cc2)nc1CCCC[C@H]1CO[C@@](C)(C(=O)O)OC1	nM	=	30
CC(C)(Oc1ccc(C(=O)c2ccc(Cl)cc2)cc1)C(=O)O [FENOFIBRIC ACID]	nM	>	100000
CCc1oc(-c2ccc(C)cc2)nc1CCCC[C@H]1CO[C@@](C)(C(=O)O)OC1	nM	=	30
